Give measured Percent Effect for each item. Keep answers brief.
# Organism: Homo sapiens
# EXPERIMENT SUMMARY: To identify inhibition of the IFN signalling (Jak-Stat) pathway via expression of an eGFP reporter gene under the control of an IFN-stimulated response element (ISRE) containing MxA promoter.
# Format: functional
# Design: scale not given: direction of the effect not stated beside the values
# STATED CONDITIONS: 30 µM
A complete answer gives the number and then names the unit.

Ask: // query Percent Effect value for entry CCC1CN(C(=O)NCCOc2ccc3c(c2)OCO3)CCO1 (stereo unspecified)
Result: 1.58%

Ask: // query Percent Effect value for entry Cc1ccc(N2CC[C@H]3O[C@@H](C(=O)NCc4ccco4)CC[C@H]32)nn1
Result: 2.02%

Ask: // query Percent Effect value for entry CCN1CCCC1CN(CCN(C)C)S(=O)(=O)c1ccc(C#N)cc1 (stereo unspecified)
Result: 3.29%

Ask: // query Percent Effect value for entry Cc1nc(N(C)C)nc2c1COCC21CCN(C(=O)NC(C)C)C1 (stereo unspecified)
Result: -1.11%

Ask: // query Percent Effect value for entry COCCC(=O)N1CCn2c(COCC3CC3)cnc2C1C (stereo unspecified)
Result: -4.92%

Ask: // query Percent Effect value for entry Cc1nc(-c2ccsc2)ccc1C(=O)O
Result: -3.42%

====

# MEASURED TARGET: Tyrosyl-tRNA synthetase, putative (Trypanosoma cruzi (strain CL Brener))
# EXPERIMENT SUMMARY: Trypanosoma cruzi tyrosyl tRNA synthetase (TcYRS) SOP
# Assay type: functional
# Design: scale not given: direction of the effect not stated beside the values
# STATED CONDITIONS: 30 µM
MEASUREMENT NAME: Percent Effect (%)
The answer is to be given in %; state only the numeric part.

Ask: // query Percent Effect value for entry NC(=O)NCC(=O)N1C[C@H]2CC[C@@H]1CN(C1Cc3ccccc3C1)C2
Result: 13.6

Ask: // query Percent Effect value for entry CCN(CC(=O)NC)C(=O)Cc1nc(-c2ccco2)oc1C
Result: 13.6

Ask: // query Percent Effect value for entry Cc1ccc(-c2nc(CCNC(=O)CCN3CCOC3=O)co2)cc1
Result: 5.13

Ask: // query Percent Effect value for entry COc1ncccc1C(=O)N1CCC(CNC(C)=O)CC1
Result: 13.6

Ask: // query Percent Effect value for entry COc1ccc(CNCc2ccnc(N3CCOCC3)c2)cc1OC
Result: 20.5

Ask: // query Percent Effect value for entry Cc1nnc(CN2CCN(CCOc3ccccc3C#N)CC2)n1C
Result: 16.1

====

# MEASURED TARGET: Tyrosyl-tRNA synthetase, putative (Trypanosoma cruzi (strain CL Brener)) (UniProt Q4DSP6)
# Sequence (whole entry): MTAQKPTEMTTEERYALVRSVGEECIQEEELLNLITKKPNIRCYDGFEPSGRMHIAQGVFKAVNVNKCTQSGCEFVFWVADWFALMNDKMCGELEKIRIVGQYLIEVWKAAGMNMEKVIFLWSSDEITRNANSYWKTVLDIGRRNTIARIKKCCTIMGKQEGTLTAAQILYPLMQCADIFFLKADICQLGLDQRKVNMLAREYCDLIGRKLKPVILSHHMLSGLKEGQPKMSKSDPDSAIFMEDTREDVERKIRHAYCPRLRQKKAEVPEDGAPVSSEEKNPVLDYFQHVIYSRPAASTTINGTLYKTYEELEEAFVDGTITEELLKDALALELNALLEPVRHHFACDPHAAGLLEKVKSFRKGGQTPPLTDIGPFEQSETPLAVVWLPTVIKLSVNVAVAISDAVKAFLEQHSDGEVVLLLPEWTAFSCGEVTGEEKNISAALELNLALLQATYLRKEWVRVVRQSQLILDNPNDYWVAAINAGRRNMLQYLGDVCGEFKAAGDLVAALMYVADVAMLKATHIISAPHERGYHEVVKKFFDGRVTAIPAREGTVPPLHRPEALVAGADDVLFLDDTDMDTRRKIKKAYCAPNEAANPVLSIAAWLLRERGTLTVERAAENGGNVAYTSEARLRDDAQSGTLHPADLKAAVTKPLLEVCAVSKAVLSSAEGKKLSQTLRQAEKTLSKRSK
# EXPERIMENT SUMMARY: Trypanosoma cruzi tyrosyl tRNA synthetase (TcYRS) SOP
# Type: functional
# Parameters: scale not given: direction of the effect not stated beside the values
# STATED CONDITIONS: 30 µM
Could you mark each record yes if its Percent Effect falls strictly under 10%, and no if it equals or exceeds it?

Ask: Percent Effect strictly < 10% for this compound? Cn1ccc(C(=O)N2CCN(CCc3ccccc3)CC2)cc1=O
Result: no

Ask: Percent Effect strictly < 10% for this compound? Cc1nc(C)c(C(=O)NCCNC(=O)c2ccc(F)cc2F)s1
Result: no

Ask: Percent Effect strictly < 10% for this compound? N#Cc1ccc(S(=O)(=O)NC(=O)C2CC2)c(C(F)(F)F)c1
Result: no

Ask: Percent Effect strictly < 10% for this compound? COCc1nc(C(=O)NS(=O)(=O)c2cc(F)ccc2F)cs1
Result: yes

Ask: Percent Effect strictly < 10% for this compound? Cc1nc(C)n(CC2CCCN(c3ncnc4c3CCC4)C2)n1 (configuration not stated)
Result: yes

Ask: Percent Effect strictly < 10% for this compound? CCN1CCN(C2CCN(Cc3c(C)noc3C)CC2)C1=O
Result: no

Ask: Percent Effect strictly < 10% for this compound? Cc1occc1C(=O)NCc1ccc(N2CCCC(C(N)=O)C2)cc1 (configuration not stated)
Result: yes

Ask: Percent Effect strictly < 10% for this compound? Cc1noc(C2CCN(C(=O)CN(C)c3ccc(Cl)cn3)CC2)n1
Result: no

Ask: Percent Effect strictly < 10% for this compound? Cc1cc(C)n(C2CN(CC(=O)NCC(C)(C)N3CCOCC3)C2)n1
Result: no

Ask: Percent Effect strictly < 10% for this compound? COC1CCCN(C(=O)Nc2nc(C)n(C)n2)C1 (configuration not stated)
Result: yes

Ask: Percent Effect strictly < 10% for this compound? Cc1ncc(CNC(=O)CCc2cccc(F)c2)c(C2CCCN2C)n1 (configuration not stated)
Result: yes

Ask: Percent Effect strictly < 10% for this compound? Cc1cnc(CN2CCC(N(C)Cc3nnc(C4CC4)n3C)C2)cn1 (configuration not stated)
Result: yes

Ask: Percent Effect strictly < 10% for this compound? Cc1ccc(C(=O)N2CCN(CCC(C)(C)C)CC2)c(=O)[nH]1
Result: yes

Ask: Percent Effect strictly < 10% for this compound? COc1ncccc1NC(=O)NCC1CCS(=O)(=O)C1 (configuration not stated)
Result: no

Ask: Percent Effect strictly < 10% for this compound? Cc1cc(C)n(CC(=O)N(C)Cc2csc(-c3cccs3)n2)c(=O)n1
Result: no

Ask: Percent Effect strictly < 10% for this compound? NC(=O)C1CCN(C(=O)c2cccc(OCc3cscn3)c2)CC1
Result: no

Ask: Percent Effect strictly < 10% for this compound? Cc1ccc(CNCCOc2ccc(S(C)(=O)=O)cc2)cc1
Result: yes

Ask: Percent Effect strictly < 10% for this compound? CNC(=O)C1(CCCc2ccncc2)CCCN1 (configuration not stated)
Result: no

Ask: Percent Effect strictly < 10% for this compound? Cc1cnn(C2CCCN(C(=O)Cc3ccc(-n4cccn4)cc3)C2)c1 (configuration not stated)
Result: yes

Ask: Percent Effect strictly < 10% for this compound? CCN(Cc1cccc2c1OCO2)C(=O)NC1CC1
Result: no

Ask: Percent Effect strictly < 10% for this compound? CC(NC(=O)N(C)Cc1ccsc1)c1ccc2c(c1)NC(=O)CO2 (configuration not stated)
Result: no

Ask: Percent Effect strictly < 10% for this compound? CC(C)c1noc(CCCC(=O)NC2CCS(=O)(=O)C2)n1 (configuration not stated)
Result: no

Ask: Percent Effect strictly < 10% for this compound? Cc1n[nH]c(C(=O)NCc2ccnc(OCC(F)(F)F)c2)c1Br
Result: no

Ask: Percent Effect strictly < 10% for this compound? CC(C)(C)c1cn2nc(N3CCCC3Cn3cncn3)sc2n1 (configuration not stated)
Result: no

Ask: Percent Effect strictly < 10% for this compound? Cc1cc(C)n(CC2CCCCN2C(=O)c2ccc3nncn3c2)n1 (configuration not stated)
Result: no

Ask: Percent Effect strictly < 10% for this compound? NCC1Cn2nnc(-c3cccc(F)c3)c2CO1 (configuration not stated)
Result: yes

Ask: Percent Effect strictly < 10% for this compound? CCN1CC2(CC1=O)CN(Cc1cccs1)CCN(C(=O)C(C)C)C2 (configuration not stated)
Result: no

Ask: Percent Effect strictly < 10% for this compound? Cc1noc(CN2CCN(Cc3cccs3)CC2)n1
Result: no

Ask: Percent Effect strictly < 10% for this compound? CC(C)NC(=O)Nc1ccc(CNCc2cccc(OC(F)F)c2)cc1
Result: yes

Ask: Percent Effect strictly < 10% for this compound? Cc1cnn(Cc2cc(F)ccc2F)c1NC(=O)C1COCCO1 (configuration not stated)
Result: no

Ask: Percent Effect strictly < 10% for this compound? CN(Cc1nc2c(cnn2C)c(=O)[nH]1)Cc1ccc(F)cc1F
Result: no

Ask: Percent Effect strictly < 10% for this compound? COc1cccc(CCC(=O)N2CCCC(n3cc(C)cn3)C2)c1 (configuration not stated)
Result: yes

Ask: Percent Effect strictly < 10% for this compound? COc1c(C2CCCN2C(=O)c2cc(Cl)c[nH]2)c(C)nn1C (configuration not stated)
Result: yes

Ask: Percent Effect strictly < 10% for this compound? Cc1n[nH]c(C2CN(C(=O)c3ccnc(C4CC4)n3)CCO2)n1 (configuration not stated)
Result: yes

Ask: Percent Effect strictly < 10% for this compound? Cc1cccc(CN2C(=O)CO[C@@H]3CN(CCO)C[C@H]32)c1
Result: yes

Ask: Percent Effect strictly < 10% for this compound? Cc1cc(N2CCC(c3nnc(CN(C)C)n3C3CC3)CC2)ccn1
Result: yes

Ask: Percent Effect strictly < 10% for this compound? CCc1nc(CC(=O)NCC(Cc2ccc(F)cc2)C(N)=O)cs1 (configuration not stated)
Result: no

Ask: Percent Effect strictly < 10% for this compound? Cc1ccc(-c2nc(CN3CCN(S(=O)(=O)N(C)C)CC3)cs2)o1
Result: no

Ask: Percent Effect strictly < 10% for this compound? O=C([C@H]1C[C@H]2OCC[C@H]2N(CCc2ccccc2)C1)N1CCCCO1
Result: no

Ask: Percent Effect strictly < 10% for this compound? Cc1nc(C)c(C(=O)N2CCCC2c2nnc3n2CCCCC3)s1 (configuration not stated)
Result: no

Ask: Percent Effect strictly < 10% for this compound? CC(=O)N1CCCN(Cc2csc(-c3ncccn3)n2)CC1
Result: no

Ask: Percent Effect strictly < 10% for this compound? Cc1noc(C2CCN(C(=O)CCNc3ncccn3)CC2)n1
Result: no

Reference source for all entries: ChEMBL document CHEMBL3988442
